In this section we review reported TGI values for a set of compounds.
- Test system: HT29 colon
- RUN DESCRIPTION: NCI tumour cell line growth inhibition, 48 h

>  <COMPOUND>
CC1(CCc2ccccc2)CC1(Br)Br (configuration not stated)

>  <TGI>
> 100 µM

$$$$
>  <COMPOUND>
CN(C)CC(/C(Cc1ccccc1)=N\NC(=O)c1ccncc1)c1ccccc1 (configuration not stated)

>  <TGI>
> 100 µM

$$$$
>  <COMPOUND>
COc1ccc(C[C@H]2NC(=O)/C=C/C[C@@H]([C@H](C)[C@H]3O[C@@H]3c3ccccc3)OC(=O)[C@H](CC(C)C)OC(=O)[C@H](C)CNC2=O)cc1

>  <TGI>
> 6.54e-05 µM

$$$$
>  <COMPOUND>
CC(=O)C1CC2(c3ccc(C)cc3)C(c3ccc(C)cc3)=C(c3ccc(C)cc3)C1(c1ccc(C)cc1)S2=O (configuration not stated)

>  <TGI>
> 100 µM

$$$$
>  <COMPOUND>
CC(=O)[CH-]C(=O)c1ccccc1.CC(=O)[CH-]C(=O)c1ccccc1.CC(=O)[CH-]C(=O)c1ccccc1.[Tl+3]

>  <TGI>
> 100 µM

$$$$
>  <COMPOUND>
c1ccc2[nH]c(SSc3nc4ncncc4[nH]3)nc2c1

>  <TGI>
> 100 µM

$$$$
>  <COMPOUND>
CN(C)Cc1cc(C(C)(C)C)cc(CNC2CCCCC2)c1O

>  <TGI>
54.6 µM

$$$$
>  <COMPOUND>
Cc1ccccc1CN1CC2=C(CCN(Cc3ccccc3)C2=O)N2CCN=C12

>  <TGI>
> 100 µM

$$$$
>  <COMPOUND>
c1ccc2c(c1)nc1n2CCNC1

>  <TGI>
> 100 µM

$$$$
>  <COMPOUND>
COc1cc(NC(=O)c2cc(OC)c3ccn(C)c3c2)cc2c1C[C@]1(C)CC[C@@H](O)C(C)(C)[C@H]1O2

>  <TGI>
> 100 µM

$$$$
>  <COMPOUND>
C1CNCCNCCNCCN1

>  <TGI>
> 100 µM

$$$$
>  <COMPOUND>
N#Cc1ccc(OC(=O)c2ccc(N=C(N)N)cc2)cc1

>  <TGI>
> 100 µM

$$$$

----------
- Tested on: NCI-H522 lung
- RUN DESCRIPTION: NCI tumour cell line growth inhibition, 48 h

>  <COMPOUND>
CC(C)=CCC/C(=C\CC/C(=C\CCc1ccoc1)C(=O)O)C(=O)O

>  <UNIT TAG>
µM

>  <MEASUREMENT QUALIFIER>
>

>  <TGI>
100

$$$$
>  <COMPOUND>
C1CNCCNCCNCCN1

>  <UNIT TAG>
µM

>  <MEASUREMENT QUALIFIER>
>

>  <TGI>
100

$$$$
>  <COMPOUND>
O=C(Nc1ccc(-n2cc(-c3ccncc3)c(-c3ccc(O)c(Cl)c3)n2)cc1)c1cc(Cl)cc(Cl)c1

>  <UNIT TAG>
µM

>  <MEASUREMENT QUALIFIER>
>

>  <TGI>
32.5

$$$$
>  <COMPOUND>
COc1ccc2c(c1)C1Oc3ccccc3CC1(O)CO2 (stereo not given)

>  <UNIT TAG>
µM

>  <MEASUREMENT QUALIFIER>
>

>  <TGI>
100

$$$$
>  <COMPOUND>
O=C(NC1CC1)c1ccc(-c2nc3ccc4[nH]ncc4c3c3c2CCCC3)cc1

>  <UNIT TAG>
µM

>  <MEASUREMENT QUALIFIER>
=

>  <TGI>
9.54

$$$$
>  <COMPOUND>
COC1/C=C\C=C(/C)C(=O)Nc2cc3nc4ccc(Br)cc4oc-3c(c2=O)CC(C)CC(OC)C(O)C(C)/C=C(\C)C1OC(N)=O (stereo not given)

>  <UNIT TAG>
µM

>  <MEASUREMENT QUALIFIER>
=

>  <TGI>
0.142

$$$$
>  <COMPOUND>
O=C1CCCCCCCC/C=C/CCC(c2ccco2)O1 (stereo not given)

>  <UNIT TAG>
µM

>  <MEASUREMENT QUALIFIER>
>

>  <TGI>
100

$$$$
>  <COMPOUND>
O=c1c2ncn(C3CCCCO3)c2n(-c2ccccc2)c(=S)n1-c1ccccc1 (stereo not given)

>  <UNIT TAG>
µM

>  <MEASUREMENT QUALIFIER>
>

>  <TGI>
86.7

$$$$
>  <COMPOUND>
CC([C@H]1CCC2C3CCC4C[C@@H](NC=O)CC[C@]4(C)C3CC[C@@]21C)N(C)C (stereo not given in full)

>  <UNIT TAG>
µM

>  <MEASUREMENT QUALIFIER>
=

>  <TGI>
17.6

$$$$
>  <COMPOUND>
COC(=O)COc1ccc(/C=C2\N=C(c3ccccc3)N(c3cc(C(F)(F)F)ccc3Cl)C2=O)cc1

>  <UNIT TAG>
µM

>  <MEASUREMENT QUALIFIER>
=

>  <TGI>
68.8

$$$$

----------
- Test system: DLD-1 colon
- RUN DESCRIPTION: NCI tumour cell line growth inhibition, 48 h
In this section we review reported TGI values for a set of compounds.
PARAMETER MEASURED: TGI

>  <COMPOUND>
OCC(O)C(O)C(O)C1SC(c2ccccc2)=NN1c1ccccc1 (configuration not stated)

>  <SYSTEM>
DLD-1 colon

>  <PARAMETER MEASURED>
TGI

>  <MEASURED>
> 100 µM

$$$$
>  <COMPOUND>
CC1(CO)OC1COCc1ccccc1 (configuration not stated)

>  <SYSTEM>
DLD-1 colon

>  <PARAMETER MEASURED>
TGI

>  <MEASURED>
> 100 µM

$$$$
>  <COMPOUND>
COc1ccc(C(=O)C(c2ccc(OC)cc2)C2(O)C(=O)Nc3c(C)cc(Cl)cc32)cc1 (configuration not stated)

>  <SYSTEM>
DLD-1 colon

>  <PARAMETER MEASURED>
TGI

>  <MEASURED>
> 100 µM

$$$$
>  <COMPOUND>
CC(=O)OCSc1ncnc2c1ncn2CN1CCOCC1

>  <SYSTEM>
DLD-1 colon

>  <PARAMETER MEASURED>
TGI

>  <MEASURED>
> 100 µM

$$$$
>  <COMPOUND>
COc1cc2c(c(OC)c1OC)-c1ccc(SC)c(=O)cc1[C@@H](NC(=O)c1ccc(OC(C)=O)cc1)CC2

>  <SYSTEM>
DLD-1 colon

>  <PARAMETER MEASURED>
TGI

>  <MEASURED>
28.8 µM

$$$$
>  <COMPOUND>
NCCCN(CCCN)CCCNCc1c2ccccc2c(CNCCCN(CCCN)CCCN)c2ccccc12

>  <SYSTEM>
DLD-1 colon

>  <PARAMETER MEASURED>
TGI

>  <MEASURED>
28.8 µM

$$$$
>  <COMPOUND>
CC(=O)[CH-]C(=O)c1ccccc1.CC(=O)[CH-]C(=O)c1ccccc1.CC(=O)[CH-]C(=O)c1ccccc1.[Tl+3]

>  <SYSTEM>
DLD-1 colon

>  <PARAMETER MEASURED>
TGI

>  <MEASURED>
> 100 µM

$$$$
>  <COMPOUND>
CN(C)CC(/C(Cc1ccccc1)=N\NC(=O)c1ccncc1)c1ccccc1 (configuration not stated)

>  <SYSTEM>
DLD-1 colon

>  <PARAMETER MEASURED>
TGI

>  <MEASURED>
> 100 µM

$$$$
>  <COMPOUND>
COc1ccc(C2S/C(=C\c3cc(OC)c(OC)c(OC)c3)C(=O)N2NC(=O)Cc2ccccc2)cc1 (configuration not stated)

>  <SYSTEM>
DLD-1 colon

>  <PARAMETER MEASURED>
TGI

>  <MEASURED>
> 100 µM

$$$$
>  <COMPOUND>
COC1/C=C\C=C(/C)C(=O)Nc2cc3nc4ccc(Br)cc4oc-3c(c2=O)CC(C)CC(OC)C(O)C(C)/C=C(\C)C1OC(N)=O (configuration not stated)

>  <SYSTEM>
DLD-1 colon

>  <PARAMETER MEASURED>
TGI

>  <MEASURED>
8.29 µM

$$$$
>  <COMPOUND>
Cc1cccc(C)c1NC(=O)CCCC(=O)CC(=O)/C=C/c1ccccc1

>  <SYSTEM>
DLD-1 colon

>  <PARAMETER MEASURED>
TGI

>  <MEASURED>
> 100 µM

$$$$
>  <COMPOUND>
CC1Cc2c(N)nc(NN)nc2NC1=O (configuration not stated)

>  <SYSTEM>
DLD-1 colon

>  <PARAMETER MEASURED>
TGI

>  <MEASURED>
> 100 µM

$$$$
